assay: qHTS profiling of the MIPE4 collection as inhibitors of Plasmodium falciparum (3D7) proliferation (AID 743344);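 further: scaled between DMSO vehicle wells and 0.29 µM artemisinin as full inhibition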; conditions: P. falciparum 3D7 in erythrocytes, SYBR Green DNA fluorescence, 72 h; at 28.5 µM unless noted
parasite growth, % of DMSO control reference

compound	parasite growth, % of DMSO control, %
NCCCCCC(=O)O	417
COc1ccccc1OCCNCC(O)COc1cccc2[nH]c3ccccc3c12 (stereo unspecified)	16.5
CC(C)(C)C(=O)Oc1ccc(S(=O)(=O)Nc2ccccc2C(=O)NCC(=O)O)cc1	101
Nc1nc2c(ncn2COC(CO)CO)c(=O)[nH]1	91.1
O=C1Cc2cc(CCN3CCN(c4nsc5ccccc45)CC3)c(Cl)cc2N1	14.8
Clc1ccc(C(c2ccccc2Cl)C(Cl)Cl)cc1 (stereo unspecified)	24.3
COc1ccc(C2CNC(=O)C2)cc1OC1CCCC1 (stereo unspecified)	109
N[C@@H](Cc1c[nH]c2ccc(O)cc12)C(=O)O	101
NC(=O)NO	93.9
Cc1ccc(C(=O)Nc2ccc(S(=O)(=O)O)c3cc(S(=O)(=O)O)cc(S(=O)(=O)O)c23)cc1NC(=O)c1cccc(NC(=O)Nc2cccc(C(=O)Nc3cc(C(=O)Nc4ccc(S(=O)(=O)O)c5cc(S(=O)(=O)O)cc(S(=O)(=O)O)c45)ccc3C)c2)c1	19.9
CN(C)CCC=C1c2ccccc2C=Cc2ccccc21	58.1
CC1COc2c(N3CCN(C)CC3)c(F)cc3c(=O)c(C(=O)O)cn1c23 (stereo unspecified)	59.3
C[C@H]1c2cccc(O)c2C(O)=C2C(=O)[C@]3(O)C(O)=C(C(N)=O)C(=O)[C@@H](N(C)C)[C@@H]3[C@@H](O)[C@@H]21	6.81
Cc1ccc(-c2cc(C(F)(F)F)nn2-c2ccc(S(N)(=O)=O)cc2)cc1	21.9
COc1ccc2c(c1)c(CC(=O)O)c(C)n2C(=O)c1ccc(Cl)cc1	55.7
C[C@@H]1CC(=O)NN=C1c1ccc(NN=C(C#N)C#N)cc1	8.76
Clc1ccccc1C(c1ccccc1)(c1ccccc1)n1ccnc1	4.91
O=c1c(O)c(-c2ccc(O)c(O)c2)oc2cc(O)cc(O)c12	12.8
O=C(C1CCCCC1)N1CC(=O)N2CCc3ccccc3C2C1 (stereo unspecified)	61.4
CN(C)CCOC(c1ccccc1)c1ccccc1	90.6
NC12CC3CC(CC(C3)C1)C2	11.2
Cn1ccc2cc3c(cc21)CCN3C(=O)Nc1cccnc1	23.4
CCC1(C)CC(=O)NC1=O (stereo unspecified)	99.5
CCN1CCCC1CNC(=O)c1cc(S(=O)(=O)CC)c(N)cc1OC (stereo unspecified)	93.7
O=C(c1ccc(OCCN2CCCCC2)cc1)c1c(-c2ccc(O)cc2)sc2cc(O)ccc12	7.18
CC[C@@]1(O)C(=O)OCc2c1cc1n(c2=O)Cc2cc3c(CN(C)C)c(O)ccc3nc2-1	13.9
CN(Cc1cnc2nc(N)nc(N)c2n1)c1ccc(C(=O)N[C@@H](CCC(=O)O)C(=O)O)cc1	8.82
CC(C)NCC(O)c1ccc(O)c(O)c1 (stereo unspecified)	10.6
CN(C)C(=N)N=C(N)N	97.5
CN(CCOc1ccc(NS(C)(=O)=O)cc1)CCc1ccc(NS(C)(=O)=O)cc1	115
O=C1c2c(O)ccc(O)c2C(=O)c2c(NCCNCCO)ccc(NCCNCCO)c21	0.962
CCc1cccc2c3c([nH]c12)C(CC)(CC(=O)O)OCC3 (stereo unspecified)	71
COc1cc2nc(N(C)CCCNC(=O)C3CCCO3)nc(N)c2cc1OC (stereo unspecified)	64
OCCN1CCN(CCCN2c3ccccc3Sc3ccc(C(F)(F)F)cc32)CC1	7.22
NS(=O)(=O)c1cc2c(cc1Cl)NCNS2(=O)=O	53.2
Cn1c(=O)c2c(ncn2C)n(C)c1=O	91.2
Fc1ccc([C@@H]2CCNC[C@H]2COc2ccc3c(c2)OCO3)cc1	35.7
Cn1cnc2c1c(=O)[nH]c(=O)n2C	8.09
NCCS(=O)(=O)O	102
COc1nc(C)nc(Cl)c1NC1=NCCN1	89.8
CC1(C)O[C@H]2CC(=O)OC[C@]23[C@H]2CC[C@@]4(C)[C@H](c5ccoc5)OC(=O)[C@H]5O[C@]54[C@]2(C)C(=O)C[C@@H]13	86.6
CCCCc1oc2ccccc2c1C(=O)c1cc(I)c(OCCN(CC)CC)c(I)c1	6.22
Cc1cc(C(C)(C)C)c(O)c(C)c1CC1=NCCN1	80.6
COc1ccccc1OCC(O)CN1CCN(CC(=O)Nc2c(C)cccc2C)CC1 (stereo unspecified)	126
CN1CCC(=C2c3ccccc3C=Cc3ccccc32)CC1	15
